ASSAY_SYSTEM: T1, human MSLN-R2-his protein (human, UniProt Q13421 391-486)
T1 construct: Region 2 of human mesothelin, made in HEK293E cells, His-tagged; also called human MSLN-R2 protein; hMSLN-R2-his; not shown: His tag
T1 sequence (Q13421 other isoform, or with tags, fused parts or gaps): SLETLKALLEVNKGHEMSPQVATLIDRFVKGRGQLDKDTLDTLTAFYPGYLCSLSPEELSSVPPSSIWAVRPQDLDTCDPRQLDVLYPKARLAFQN
ASSAY_METHOD_TEXT: ELISA on coated MSLN-R2; antibody 0.001 nM
Recorded OD450 for the following binders
State the answer as a number, implicitly in OD450.

Documented OD450 of S009-F8-15.19 (antibody, human IgG1, kappa, V domains shown) VH: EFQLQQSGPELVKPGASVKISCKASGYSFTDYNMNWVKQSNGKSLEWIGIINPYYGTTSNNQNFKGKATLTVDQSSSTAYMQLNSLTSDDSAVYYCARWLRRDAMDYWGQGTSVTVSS VL: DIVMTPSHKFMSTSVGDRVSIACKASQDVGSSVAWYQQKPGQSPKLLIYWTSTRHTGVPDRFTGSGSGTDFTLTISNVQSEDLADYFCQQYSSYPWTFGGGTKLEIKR : 0.04

Documented OD450 of S009-F8-24.14 (antibody, human IgG1, kappa, V domains shown) VH: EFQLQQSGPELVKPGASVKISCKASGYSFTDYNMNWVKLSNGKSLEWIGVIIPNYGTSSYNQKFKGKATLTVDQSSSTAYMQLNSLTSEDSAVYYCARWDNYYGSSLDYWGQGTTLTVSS VL: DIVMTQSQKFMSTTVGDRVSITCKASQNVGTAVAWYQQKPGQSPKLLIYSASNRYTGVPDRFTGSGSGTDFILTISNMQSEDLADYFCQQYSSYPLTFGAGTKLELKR : 0.04
